system: SARS-CoV-2; test: Antiviral activity against SARS-CoV-2 in A549-ACE2 cells (supernatant viral load by RT-qPCR); settings: read-out: 50% effective concentration (IC50), SARS-CoV-2 supernatant viral load, MOI 0.1, 48 h post infection, hydrochloride
experimental.endpoint: IC50 (µM)
The figure you give is taken to be in µM; do not add the unit.

Exam item: SARS-CoV-2 / IC50 / Cl.Nc1c(Br)cc(Br)cc1CN[C@H]1CC[C@H](O)CC1 [Ambroxol, hydrochloride] : value?
Marked response: 22
